# assayed-target: LdtMt2 (Mycobacterium tuberculosis)
# Sequence (I6Y9J2 56-408): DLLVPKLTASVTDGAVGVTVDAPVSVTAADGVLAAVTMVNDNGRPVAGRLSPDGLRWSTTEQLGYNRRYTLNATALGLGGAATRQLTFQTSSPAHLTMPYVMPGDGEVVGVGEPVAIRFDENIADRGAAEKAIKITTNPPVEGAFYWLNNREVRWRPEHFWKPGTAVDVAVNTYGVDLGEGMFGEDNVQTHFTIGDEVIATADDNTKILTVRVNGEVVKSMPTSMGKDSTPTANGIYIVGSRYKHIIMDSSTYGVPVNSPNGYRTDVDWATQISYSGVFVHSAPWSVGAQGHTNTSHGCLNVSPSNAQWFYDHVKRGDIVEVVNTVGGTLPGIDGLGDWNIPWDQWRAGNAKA
# test-method-notes: High-throughput (RapidFire) protein mass spectrometry of covalent adduct formation with LdtMt2
# Assay type: biochemical
# experimental-setup: LdtMt2 3 µM with two equivalents (6 µM) of inhibitor, 50 mM Tris pH 7.5
result-type: time to complete reaction (adduct formation) with LdtMt2

As a guide, the following entries are already answered.
Note to self: time to complete reaction (adduct formation) with LdtMt2 of O=c1c2ccccc2[se]n1-c1ccccc1 [Compound 4, Ebselen] with LdtMt2 (Mycobacterium tuberculosis) was ≤ 1 min

time to complete reaction (adduct formation) with LdtMt2 value, target or system LdtMt2 (Mycobacterium tuberculosis), for O=C1C=CC(=O)N1 [Compound 3, Maleimide] : > 82 min

Record CN(C)C(=S)SSC(=S)N(C)C [Compound 8, Thiram] / LdtMt2 (Mycobacterium tuberculosis), time to complete reaction (adduct formation) with LdtMt2 recorded as ≤ 45 min

Moving on to the next compound.
I looked up c1ccc(SSc2ccccn2)nc1 [Compound 9, Aldrithiol] and its time to complete reaction (adduct formation) with LdtMt2 for LdtMt2 (Mycobacterium tuberculosis) was ≤ 10 min

These measurements were taken from paper PMC6984337.
